- assay system: human CD33 N20D (human, UniProt P20138 18-364)
- Sequence (P20138 18-364 N20D limits assumed): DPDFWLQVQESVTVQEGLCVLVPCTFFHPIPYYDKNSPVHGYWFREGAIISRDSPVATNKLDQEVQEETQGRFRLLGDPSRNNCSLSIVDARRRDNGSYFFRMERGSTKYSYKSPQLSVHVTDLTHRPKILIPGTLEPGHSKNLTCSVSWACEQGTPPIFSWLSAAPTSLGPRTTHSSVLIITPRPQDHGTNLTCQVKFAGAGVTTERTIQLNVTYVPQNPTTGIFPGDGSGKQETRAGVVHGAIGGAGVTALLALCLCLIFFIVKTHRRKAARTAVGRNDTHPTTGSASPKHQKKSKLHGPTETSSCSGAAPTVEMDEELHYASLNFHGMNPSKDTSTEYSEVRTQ
- assay details: flow cytometry, mutant on cells, IgG
readout type: Mean % WT Binding

Worked set:
| binder | data value |
| --- | --- |
| Refmab #3 (antibody, human IgG1, V domains shown, Tested in IgG format; human IgG1 Fc silent (PG-LALA)) VH: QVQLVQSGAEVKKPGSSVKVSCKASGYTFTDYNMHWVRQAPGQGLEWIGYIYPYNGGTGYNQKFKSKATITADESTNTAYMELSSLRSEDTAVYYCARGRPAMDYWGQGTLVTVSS VL: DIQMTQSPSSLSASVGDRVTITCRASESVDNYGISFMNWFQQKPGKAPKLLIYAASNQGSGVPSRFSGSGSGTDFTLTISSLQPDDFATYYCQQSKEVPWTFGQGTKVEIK | 4.6 % WT binding |
| Refmab #1 (antibody, human IgG1, V domains shown, Tested in IgG format; human IgG1 (Absolute Antibody hP67.6, Cat. No. Ab00283-10.0); also called hP67.6) VH: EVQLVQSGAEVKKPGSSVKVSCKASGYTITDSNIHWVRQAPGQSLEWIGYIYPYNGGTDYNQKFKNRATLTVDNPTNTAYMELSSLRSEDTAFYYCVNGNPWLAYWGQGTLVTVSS VL: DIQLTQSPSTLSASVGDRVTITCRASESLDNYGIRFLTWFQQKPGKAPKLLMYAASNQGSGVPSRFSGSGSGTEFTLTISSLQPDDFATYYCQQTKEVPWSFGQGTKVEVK | 0.7 % WT binding |
| Refmab #2 (antibody, human IgG1, V domains shown, Tested in IgG format; human IgG1 Fc silent (PG-LALA)) VH: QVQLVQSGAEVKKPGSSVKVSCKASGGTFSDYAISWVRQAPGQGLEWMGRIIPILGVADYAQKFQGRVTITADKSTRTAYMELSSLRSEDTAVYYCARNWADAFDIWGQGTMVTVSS VL: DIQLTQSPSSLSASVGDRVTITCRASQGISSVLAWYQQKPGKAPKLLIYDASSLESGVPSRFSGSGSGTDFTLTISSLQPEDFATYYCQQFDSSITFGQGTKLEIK | 109 % WT binding |

# context switch: different binder, same Mean % WT Binding
Inquiry: Output measured Mean % WT Binding for this item: Refmab #4 (antibody, human IgG1, V domains shown, Tested in IgG format; human IgG1 Fc silent (PG-LALA)) VH: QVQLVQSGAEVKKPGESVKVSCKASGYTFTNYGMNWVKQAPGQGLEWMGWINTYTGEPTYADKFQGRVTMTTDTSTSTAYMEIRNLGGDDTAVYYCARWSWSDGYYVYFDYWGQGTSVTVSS VL: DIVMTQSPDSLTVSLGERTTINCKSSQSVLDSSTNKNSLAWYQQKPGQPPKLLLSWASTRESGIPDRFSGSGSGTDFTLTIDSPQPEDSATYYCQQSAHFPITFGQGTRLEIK
Reply text: 91.3 % WT binding

Each recorded value in this set is attributed to patent US20260242735A1.
